Reported Ki, rat nNOS (Rattus norvegicus (Rat), UniProt P29476).
Field format: number, assumed µM, no unit text.

> print(dat)
                                   compound  quantity.unit  value.reported
1  COc1ccccc1CNCCO[C@@H]1CNC[C@@H]1Cc1cc(C)cc(N)n1 [Compound 3b]             µM            0.82
2  Cc1cc(N)nc(C[C@H]2CNC[C@H]2OCCNCc2ccccc2O)c1 [Compound 3c]             µM            0.39

# next compound below
Specify the recorded Ki for Cc1cc(N)nc(C[C@H]2CNC[C@H]2OCCNCc2ccccc2F)c1 [Compound 3a] , system: rat nNOS (Rattus norvegicus (Rat), UniProt P29476).
0.41

----------
Target: HEK293t cells stably transfected with rat nNOS (Rattus norvegicus (Rat))
Experiment: nNOS cell-based assay (nitrite production, Griess reagent)
Conditions: cell-based IC50 versus in vitro IC50
One threshold, 100 x, splits the recorded Relationship (fold higher in cells) values: lower ones are criterion met, equal or higher ones are criterion not met.

Below, 3 compounds whose answers are already recorded.
> print(dat)
                                   compound                              study.system     assigned.label
1  CNc1cc(N)nc(NC)c1.Cl [Aminopyridine, reference compound]  HEK293t cells stably transfected with rat nNOS (Rattus norvegicus (Rat))  criterion not met
2  Cc1cc(N)nc(C[C@H]2CNC[C@H]2OCCNCc2ccco2)c1 [Compound 3d]  HEK293t cells stably transfected with rat nNOS (Rattus norvegicus (Rat))  criterion not met
3  Cc1cc(C[C@H]2CN(C(=O)OC(C)(C)C)C[C@H]2OCC=O)nc(N(C(=O)OC(C)(C)C)C(=O)OC(C)(C)C)c1 [Compound 2, reference compound]  HEK293t cells stably transfected with rat nNOS (Rattus norvegicus (Rat))  criterion not met

Problem: For the compound COc1ccccc1CNCCO[C@@H]1CNC[C@@H]1Cc1cc(C)cc(N)n1 [Compound 3b] , is Relationship (fold higher in cells) under 100 x?
criterion met

Problem: For the compound Cc1cc(N)nc(C[C@H]2CNC[C@H]2OCCNCc2ccccc2F)c1 [Compound 3a] , is Relationship (fold higher in cells) under 100 x?
criterion met

Problem: For the compound Cc1cc(N)nc(C[C@H]2CNC[C@H]2OCCNCc2ccccc2O)c1 [Compound 3c] , is Relationship (fold higher in cells) under 100 x?
criterion not met

Problem: For the compound C=CCO[C@@H]1CN(C(=O)OC(C)(C)C)C[C@@H]1Cc1cc(C)cc(N(C(=O)OC(C)(C)C)C(=O)OC(C)(C)C)n1 [Compound 1, reference compound] , is Relationship (fold higher in cells) under 100 x?
criterion not met

----------
Reported pIC50, rat nNOS (Rattus norvegicus (Rat)).
To interpret pIC50, take it as minus log10 of a concentration measured in moles per litre.

Worked cases, pIC50 given:
> print(dat)
                                   compound                        study.system  value.reported
1  Cc1cc(C[C@H]2CN(C(=O)OC(C)(C)C)C[C@H]2OCC=O)nc(N(C(=O)OC(C)(C)C)C(=O)OC(C)(C)C)c1 [Compound 2, reference compound]  rat nNOS (Rattus norvegicus (Rat))            6.00
2  Cc1cc(N)nc(C[C@H]2CNC[C@H]2OCCNCc2ccccc2F)c1  rat nNOS (Rattus norvegicus (Rat))            5.44
3  Cc1cc(N)nc(C[C@H]2CNC[C@H]2OCCNCc2ccccc2O)c1  rat nNOS (Rattus norvegicus (Rat))            5.46
4  CNc1cc(N)nc(NC)c1.Cl [Aminopyridine, hydrochloride, reference compound]  rat nNOS (Rattus norvegicus (Rat))            7.30

# next compound below
Answer with reported pIC50 of C=CCO[C@@H]1CN(C(=O)OC(C)(C)C)C[C@@H]1Cc1cc(C)cc(N(C(=O)OC(C)(C)C)C(=O)OC(C)(C)C)n1 [Compound 1, reference compound]
6.35

----------
Target: bovine eNOS (Bos taurus (Bovine), UniProt P29473)
Experiment: In vitro purified enzyme assay (hemoglobin capture), eNOS
Format: biochemical
Details: ratio of Ki (eNOS) to Ki (nNOS)
Each entry below lists one item and its recorded selectivity n/e value.
# output: bare number, no unit

Worked cases, selectivity n/e given:
> print(dat)
                                   compound  value.reported
1  COc1ccccc1CNCCO[C@@H]1CNC[C@@H]1Cc1cc(C)cc(N)n1 [Compound 3b]              93
2  Cc1cc(N)nc(C[C@H]2CNC[C@H]2OCCNCc2ccccc2F)c1 [Compound 3a]              98
3  Cc1cc(N)nc(C[C@H]2CNC[C@H]2OCCNCc2ccco2)c1 [Compound 3d]             169

# next compound below
Answer with reported selectivity n/e of Cc1cc(N)nc(C[C@H]2CNC[C@H]2OCCNCc2ccccc2O)c1 [Compound 3c]
93

----------
Molecular target: murine iNOS (Mus musculus (Mouse))
Assay: In vitro purified enzyme assay (hemoglobin capture), iNOS
Format: biochemical
Conditions: ratio of Ki (iNOS) to Ki (nNOS)
Excerpt: The three NOS isoforms, rat nNOS, murine iNOS and bovine eNOS were recombinant enzymes overexpressed in E. coli and purified as reported in the literature. […] The addition of hemoglobin and NOS were automated with a maximum of a 30 second delay before the reactions could be recorded at 401 nm. The absorbance increase at 401 nm is due to the formation of NO via the conversion of oxyhemoglobin to methemoglobin. […]
Each entry below lists one item and its recorded selectivity n/i value.
# output: bare number, no unit

> print(dat)
                               input.smiles  value.reported
1  Cc1cc(N)nc(C[C@H]2CNC[C@H]2OCCNCc2ccco2)c1              92

Answer with reported selectivity n/i of `COc1ccccc1CNCCO[C@@H]1CNC[C@@H]1Cc1cc(C)cc(N)n1`
139

Answer with reported selectivity n/i of `Cc1cc(N)nc(C[C@H]2CNC[C@H]2OCCNCc2ccccc2O)c1`
143

Answer with reported selectivity n/i of `Cc1cc(N)nc(C[C@H]2CNC[C@H]2OCCNCc2ccccc2F)c1`
105
